// data source = ChEMBL document CHEMBL4699542

Catalogue of compounds with associated IC50
- tested.target: Gamma-secretase
- assay.remarks: Modulation of gamma secretase in human SH-SY5Y cells overexpressing wild type APP751 assessed as effect on amyloid beta42 level by meso scale discovery
- Type: cell-based
Note: unit nM is implicit; provide only the numeric part.

>>> endpoint_value("COc1nc(-c2csc(Nc3c4c(nn3CCF)CCCC4)n2)ccc1-n1cnc(C)c1")
14
>>> endpoint_value("CCn1nc2c(c1Nc1nc(-c3ccc(-n4cnc(C)c4)c(OC)n3)cs1)CCCC2")
58

Here is another compound to look at.
Request: With Gamma-secretase as the test system, provide measured IC50 for this compound: CCn1nc2c(c1Nc1nc(-c3ccc(-n4cnc(C)c4)c(OC)n3)cs1)CCC2
Result: 19

====

- assay.remarks: Metabolic stability in mouse liver microsomes assessed as parent compound remaining at 1 uM incubated for 30 mins
- Type: ADME, Microsome
- experimental.conditions: 0.5 h
measure.name: Stabilty (%)
Unit % implied. Number only.

Worked examples follow.
>>> endpoint_value("CCn1nc2c(c1Nc1nc(-c3ccc(-n4cnc(C)c4)c(OC)n3)cs1)CCCCC2")
15
>>> endpoint_value("COc1nc(-c2csc(Nc3c4c(nn3C(C)C)CCCC4)n2)ccc1-n1cnc(C)c1")
45
>>> endpoint_value("COc1nc(-c2csc(Nc3cc(C(C)(C)C)nn3CCF)n2)ccc1-n1cnc(C)c1")
67
>>> endpoint_value("COc1nc(-c2csc(Nc3c4c(nn3CCO)CCCC4)n2)ccc1-n1cnc(C)c1")
58

Request: Name the recorded Stabilty of the item COc1nc(-c2csc(Nc3c4c(nn3CCCN3CCOCC3)CCCC4)n2)ccc1-n1cnc(C)c1 in your answer.
Result: 0.7

====

- assay.remarks: Drug level in brain of transgenic J20 mouse overexpressing human APP at 100 mg/kg, po administered via gavage for 3 consecutive days and measured after 4 hrs post last dose on day 3 by HPLC-MS/MS analysis
- Type: ADME, organism-based
- experimental.conditions: time 3 day, read-out: Ct
measure.name: concentration at 72 h

>>> endpoint_value("COc1nc(-c2csc(Nc3c4c(nn3CCF)CCCC4)n2)ccc1-n1cnc(C)c1")
"105 ng/g"

Consider the record given below.
Request: Provide only the value of recorded concentration at 72 h for CCn1nc2c(c1Nc1nc(-c3ccc(-n4cnc(C)c4)c(OC)n3)cs1)CCC2
Result: 337 ng/g

====

This section presents molecules with their documented log10 of IC50 values.
- tested.target: Cytochrome P450 3A4 (Homo sapiens, UniProt P08684)
- Sequence (P08684 whole entry): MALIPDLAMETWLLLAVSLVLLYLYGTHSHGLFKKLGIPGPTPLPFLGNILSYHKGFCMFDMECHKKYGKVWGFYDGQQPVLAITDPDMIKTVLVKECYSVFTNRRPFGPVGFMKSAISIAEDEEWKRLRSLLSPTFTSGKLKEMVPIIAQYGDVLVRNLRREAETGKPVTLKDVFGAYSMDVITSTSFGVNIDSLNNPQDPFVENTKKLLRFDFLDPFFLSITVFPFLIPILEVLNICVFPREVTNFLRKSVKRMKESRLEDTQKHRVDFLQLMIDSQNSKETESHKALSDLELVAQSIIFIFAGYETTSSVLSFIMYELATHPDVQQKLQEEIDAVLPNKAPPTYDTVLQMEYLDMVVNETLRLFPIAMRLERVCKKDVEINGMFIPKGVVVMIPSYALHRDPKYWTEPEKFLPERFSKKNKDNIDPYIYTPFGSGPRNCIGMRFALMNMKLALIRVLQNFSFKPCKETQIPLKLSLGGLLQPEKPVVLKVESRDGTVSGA
- assay.remarks: Inhibition of recombinant CYP3A4 (unknown origin) by fluorescence-based assay
Give log10 of IC50, with IC50 taken in nM.

Below: 5 molecules and their reported log10 of IC50.
>>> endpoint_value("COc1nc(-c2csc(Nc3c4c(nn3CCCO)CCCC4)n2)ccc1-n1cnc(C)c1")
3.34
>>> endpoint_value("CCn1nc2c(c1Nc1nc(-c3ccc(-n4cnc(C)c4)c(OC)n3)cs1)CCCC2")
3.57
>>> endpoint_value("COc1nc(-c2csc(Nc3c4c(nn3CC(F)(F)F)CCC4)n2)ccc1-n1cnc(C)c1")
3.15
>>> endpoint_value("CCn1nc2c(c1Nc1nc(-c3ccc(-n4cnc(C)c4)c(OC)n3)cs1)C(C)CC2(C)C (racemic)")
3.18
>>> endpoint_value("CCn1nc(C2(C)CC2)cc1Nc1nc(-c2ccc(-n3cnc(C)c3)c(OC)n2)cs1")
3.61

Request: Identify measured log10 of IC50 corresponding to COc1nc(-c2csc(Nc3cc(C(C)(C)C)nn3CC(F)(F)F)n2)ccc1-n1cnc(C)c1
Result: 3.00
